This collection of values is drawn from ChEMBL document CHEMBL1153213.

# measurement.protocol: Inhibition of Escherichia coli recombinant N-terminal hexahistidine-tagged CTP synthetase expressed in Escherichia coli BL21 (DE3) assessed as inhibition of CTP formation in Hepes buffer at pH 8 by continuous spectrophotometric assay in presence of 10 mM L-glutamine and 0.15 mM GTP
measure: IC50 (µM)

Some solved cases for reference:
> print(dat)
                                   molecule  measure  numeric.value
1         Cn1c(=O)c2[nH]c(=O)[nH]c2n(C)c1=O     IC50             88
2         Cn1c(=O)[nH]c2[nH]c(=O)n(C)c2c1=O     IC50            113
3  Cn1c(=O)c2nc[nH]c2n(C)c1=O [THEOPHYLLINE]     IC50            430

(I) O=c1[nH]c(=O)c2nc[nH]c2[nH]1 [XANTHINE]
(II) Cn1c(=O)[nH]c2ncn(C)c2c1=O [PARAXANTHINE]
(III) Oc1nc(O)c2nc(O)[nH]c2n1 [URIC ACID]
**Query** Put the items in sequence by IC50, from largest down. Put the labels in the requested order and write them down.
**Result** II, I, III
(II: 440 µM, I: 230 µM, III: 60 µM)
